experiment: Free energy of hydration predicted by polarizable AMOEBA force field, from literature; conditions: Table 5; error of AMOEBA hydration free energy vs experiment
Flag rule - AMOEBA error less than 0.3 kcal/mol flags T; the remaining entries get F.

Observe how each entry below is paired with its result.
[[record]]
molecule = "CN(C)C [trimethylamine]"
group_label = "F"

[[record]]
molecule = "Cc1ccccc1 [Toluene]"
group_label = "F"

[[record]]
molecule = "C [Methane]"
group_label = "T"

[[record]]
molecule = "CCCC [Butane]"
group_label = "F"

[[record]]
molecule = "CSC [DiMethylSulfide]"
group_label = "F"

[[record]]
molecule = "Nc1ccccc1 [Aniline]"
group_label = "F"

[[record]]
molecule = "CCSC [EthylMethylSulfide]"
group_label = "F"

[[record]]
molecule = "O [Water]"
group_label = "F"


Input: hey, is AMOEBA error for C=CCC [But-1-ene] lower than 0.3 kcal/mol or not?
Output: F

Input: # strict comparison: is reported AMOEBA error < 0.3 kcal/mol? input = c1ccncc1 [pyridine]
Output: F

Input: Would you kindly verify if AMOEBA error of CCCCS [1-Butanethiol] is strictly less than 0.3 kcal/mol?
Output: F

Input: # strict comparison: is reported AMOEBA error < 0.3 kcal/mol? input = CC(=O)O [AceticAcid]
Output: F

Input: Is 0.3 kcal/mol strictly greater than the molecule's reported AMOEBA error? molecule: CCN [ethylamine]
Output: T

----------
Listing of entries alongside the reported log10(GAFF error).
experiment: Free energy of hydration predicted by General Amber Force Field (GAFF), from literature; conditions: Table 5; error of GAFF hydration free energy vs experiment
Scale type: logarithmic (base 10). Underlying GAFF error unit: kcal/mol.

Use these answered entries as a reference point.
[[record]]
compound = "c1cc[nH]c1 [Pyrrole]"
outcome_measure = "log10(GAFF error)"
meas_value = -0.03

[[record]]
compound = "CSC [DiMethylSulfide]"
outcome_measure = "log10(GAFF error)"
meas_value = -0.51

[[record]]
compound = "CCSC [EthylMethylSulfide]"
outcome_measure = "log10(GAFF error)"
meas_value = 0.26

[[record]]
compound = "Nc1ccccc1 [Aniline]"
outcome_measure = "log10(GAFF error)"
meas_value = -0.42

[[record]]
compound = "C=CCC [But-1-ene]"
outcome_measure = "log10(GAFF error)"
meas_value = 0.04

[[record]]
compound = "CCC=O [propionaldehyde]"
outcome_measure = "log10(GAFF error)"
meas_value = -1.70

[[record]]
compound = "c1c[nH]cn1 [Imidazole]"
outcome_measure = "log10(GAFF error)"
meas_value = 0.24

[[record]]
compound = "CCCCCCCCO [Octanol]"
outcome_measure = "log10(GAFF error)"
meas_value = 0.05


Input: Quickly give me recorded log10(GAFF error) for CC(N)=O [Acetamide]
Output: 0.28

Input: Item CCCO [Propanol] : provide log10(GAFF error)
Output: 0.26

Input: Report measured log10(GAFF error); entry is CN(C)C [trimethylamine]
Output: -0.06

Input: Provide only the value of recorded log10(GAFF error) for CCCCS [1-Butanethiol]
Output: -0.16

Input: Answer with the recorded log10(GAFF error) of O [Water] only.
Output: -0.59

Input: Determine its reported log10(GAFF error): CS [MethaneThiol]
Output: -0.39

Input: Find the measured log10(GAFF error) of CC(C)O [2-Propanol] and report it.
Output: 0.13

Input: // Input: CC(=O)O [AceticAcid] . Output its log10(GAFF error) only.
Output: -0.13

Input: Please give the documented log10(GAFF error) of CNC(C)=O [N-Methylacetamide]
Output: 0.21

Input: For Oc1ccccc1 [Phenol] , write its log10(GAFF error).
Output: -0.02

Input: Respond only with log10(GAFF error) recorded for CCO [Ethanol]
Output: 0.19

Input: Look up log10(GAFF error) of CC [Ethane] and report it.
Output: -0.10

Input: Note down log10(GAFF error) recorded for c1ccccc1 [Benzene]
Output: -0.74

Input: Output measured log10(GAFF error) for this item: CCC [Propane]
Output: -0.22

----------
Assay: CHEX/H2O partition coefficient (log D) predicted with the QM-parameterized force field model (ARROW FF)
Conditions: Table 4; error of PIMD logD vs experiment
Description: In some simulations, the example QM-parameterized force-field molecular simulation process includes using the functional form of the bonded interactions, with force constants and equilibrium values fitted to QM energies at the MP2/aug-cc-pVTZ level of theory. In some simulations, solvents of water and cyclohexane are selected. Cyclohexane (CHEX) is nonpolar and equilibrates relatively quickly. […]
The following compounds are listed with their measured logD Arrow PIMD Error values.

[[record]]
compound = "CCCC"
meas_value = 0.17

[[record]]
compound = "CS"
meas_value = 0.09

[[record]]
compound = "CCC(N)=O [propionamide]"
meas_value = 0.12


Now look at this entry.
Input: Return logD Arrow PIMD Error (reported value) for this compound: "Cc1c[nH]cn1"
Output: 0.04

----------
assay: Free energy of hydration by Solvation Model Dielectric (SMD) implicit solvent model; conditions: absolute error vs Exp (hydration)
So basically: SMD Error at 0.6 kcal/mol or higher? That is 1. Lower than 0.6 kcal/mol? That is 0.

[[record]]
compound = "CCCCCCCC"
group_label = 0

[[record]]
compound = "C1CC1"
group_label = 1

[[record]]
compound = "CO"
group_label = 1


Input: # check: SMD Error of "CCCC(C)=O" is greater than or equal to 0.6 kcal/mol
Output: 0

Input: API: above_or_equal(metric=SMD Error, cutoff=0.6 kcal/mol) for item "CCN"
Output: 1

Input: Reported SMD Error at or above 0.6 kcal/mol? "CCCO"
Output: 1

Input: Test whether the compound "CCCC=O" records SMD Error of 0.6 kcal/mol or higher.
Output: 0

Input: Check if SMD Error >= 0.6 kcal/mol (inclusive). Item: CCCCOC(C)=O [ButylAcetate]
Output: 0

Input: Evaluate CNC(C)=O [N-Methylacetamide] : SMD Error at minimum 0.6 kcal/mol?
Output: 1

Input: # check: SMD Error of "CCS" is greater than or equal to 0.6 kcal/mol
Output: 0

Input: API: above_or_equal(metric=SMD Error, cutoff=0.6 kcal/mol) for item "CCCCCO"
Output: 0

----------
test: Free energy of hydration predicted with the QM-parameterized force field model (ARROW FF), classical MD and PIMD simulation in a water box; conditions: Table 3; absolute error of MD hydration free energy vs experiment
For each record, check the reported water Arrow MD Error: if it is below 0.3 kcal/mol write met, else write not met.

Consider the following illustrative entries.
[[record]]
compound = "CO [Methanol]"
group_label = "met"

[[record]]
compound = "C1CCCCCC1 [Cycloheptane]"
group_label = "not met"

[[record]]
compound = "O [Water]"
group_label = "not met"

[[record]]
compound = "C=CCCC [pent-1-ene]"
group_label = "not met"

[[record]]
compound = "CCC(=O)O [propionicacid]"
group_label = "met"


Input: Given the entry Cc1ccccc1O [o-cresol] , would its reported water Arrow MD Error be below 0.3 kcal/mol?
Output: not met

Input: hey, is water Arrow MD Error for C=C [Ethene] lower than 0.3 kcal/mol or not?
Output: met

Input: I wonder whether CCOC(C)=O [EthylAcetate] has water Arrow MD Error below 0.3 kcal/mol. Can you tell?
Output: met

----------
assay: CHEX/H2O partition coefficient (log D) predicted with the QM-parameterized force field model (ARROW FF)
Kind request: treat 0.2 as inclusive, so log D Arrow PIMD Error at 0.2 or higher is YES, anything lower is NO.

Please review the following examples before continuing.
[[record]]
compound = "CCC(=O)O [propionicacid]"
group_label = "NO"

[[record]]
compound = "C [Methane]"
group_label = "NO"

[[record]]
compound = "CCC [Propane]"
group_label = "NO"

[[record]]
compound = "Cc1c[nH]c2ccccc12 [3-methyl-indole]"
group_label = "YES"

[[record]]
compound = "CCC(=O)CC [3-Pentanone]"
group_label = "NO"

[[record]]
compound = "CN(C)C [trimethylamine]"
group_label = "YES"


Please examine the following record next.
Input: Hello, I need to know if CCOC(C)=O [EthylAcetate] has measured log D Arrow PIMD Error not below 0.2. Thanks!
Output: NO

----------
Arrow PIMD8 Error for assorted compounds
test: Free energy of hydration predicted with the QM-parameterized force field model (ARROW FF), classical MD and PIMD simulation in a water box; conditions: absolute error vs Exp (hydration)
The reply should contain only the number, in kcal/mol.

Worked set:
[[record]]
compound = "c1ccc2cc3ccccc3cc2c1 [Anthracene]"
outcome_measure = "Arrow PIMD8 Error"
meas_value = 0.07

[[record]]
compound = "CCCC=O [buytyraldehyde]"
outcome_measure = "Arrow PIMD8 Error"
meas_value = 0.07

[[record]]
compound = "Oc1ccccc1 [Phenol]"
outcome_measure = "Arrow PIMD8 Error"
meas_value = 0.18

[[record]]
compound = "CCCCCC [Hexane]"
outcome_measure = "Arrow PIMD8 Error"
meas_value = 0.06

[[record]]
compound = "CCCOC [MethylPropylEther]"
outcome_measure = "Arrow PIMD8 Error"
meas_value = 0.00


Input: Provide only the value of recorded Arrow PIMD8 Error for C=CCC [But-1-ene]
Output: 0.25

Input: Give the reported value of Arrow PIMD8 Error for this record: CCC(N)=O [propionamide]
Output: 0.17

Input: Annotate the compound CS [MethaneThiol] with its measured Arrow PIMD8 Error.
Output: 0.43

Input: Look up and state reported Arrow PIMD8 Error for CCC(C)=O [2-Butanone]
Output: 0.16

Input: Output measured Arrow PIMD8 Error for this item: C=CC=C [Buta-13-diene]
Output: 0.35

Input: Supply measured Arrow PIMD8 Error of CCCOC(C)=O [PropylAcetate] in your reply.
Output: 0.07

Input: Answer with the recorded Arrow PIMD8 Error for the compound listed here: C1CCCC1 [Cyctopentane]
Output: 0.12

Input: Note Arrow PIMD8 Error for the compound shown: CCCCCCCC [Octane]
Output: 0.06

Input: Determine its reported Arrow PIMD8 Error: c1ccc(-c2ccccc2)cc1 [Biphenyl]
Output: 0.13

Input: Tell us which Arrow PIMD8 Error value is on record for C=C [Ethene]
Output: 0.19

Input: Give the reported Arrow PIMD8 Error for this compound. CCS [EthaneThiol]
Output: 0.43

Input: Report measured Arrow PIMD8 Error; entry is CCCO [Propanol]
Output: 0.18

Input: // fetch Arrow PIMD8 Error given entry CCSC [EthylMethylSulfide]
Output: 0.11

Input: Give Arrow PIMD8 Error for Cc1c[nH]c2ccccc12 [3-methyl-indole]
Output: 1.02

Input: For CCCC [Butane] , write its Arrow PIMD8 Error.
Output: 0.04

Input: Tell me measured Arrow PIMD8 Error for c1ccc2cc3cc4ccccc4cc3cc2c1 [tetracene] please.
Output: 0.44

Input: State its Arrow PIMD8 Error for this compound: CCC=O [propionaldehyde]
Output: 0.25

Input: Tell me measured Arrow PIMD8 Error for c1cc[nH]c1 [Pyrrole] please.
Output: 0.63
